- System: MOLT-4 leukemia
- experimentSummary: NCI-60 one-dose screen, 48 h (100 = growth as untreated, 0 = no growth, -100 = all killed)
- reportedConditions: 10 µM unless noted
Compounds without any hit were thinned out: in the full panel of roughly 83,000, 20% have a hit.
Category key, based on recorded growth: L: < 30%; M: ≥ 30% and < 80%; H: ≥ 80%

C=C(C=O)[C@@H]1CC=C(C=O)CC1: L
CCNCCNc1cc(-c2cccc(C(F)(F)F)c2)c(C#N)c2nc3ccccc3n12: L
CC(=O)Nc1nccs1: H
C=C1C(=O)O[C@H]2[C@H]1CC/C(COC(=O)/C=C/C(=O)NCc1ccc(Cn3c(=O)sn(-c4ccccc4)c3=O)cc1)=C\CC[C@@]1(C)O[C@@H]21: L
CC1=NN(c2cccc(Cl)c2)C(=O)/C1=C\c1cn(CC(O)CN2CCCCC2)c2ccccc12 (centres undefined): M

Where would C=C1C(=O)O[C@H]2[C@H]1CC/C(Cn1cc(CNCCc3c[nH]c4ccccc34)nn1)=C\CC[C@@]1(C)O[C@@H]21 land among the classes by reported growth?
M

Where would CCOc1cc(N)ccc1C(=O)NCCCN(CC)CC land among the classes by reported growth?
L

Where would CN(C)CCN1C(=O)c2cccc3c(-c4ccc(-c5nc6c7ccccc7c7ccccc7c6[nH]5)cc4)ccc(c23)C1=O land among the classes by reported growth?
H

Where would CCN(CC)CCCNC(=O)c1ccc(N)cc1O land among the classes by reported growth?
H

====

- Test system: K-562 leukemia
- experimentSummary: NCI-60 one-dose screen, 48 h
- reportedConditions: 10 µM unless noted
The panel holds about 83,000 compounds, 20% with a hit somewhere; the sample as a whole holds those more often. Calls of active or inactive are those of the source. The calls were made as follows: active = growth percent below 10; inactive = the rest.
Would you mind answering with one of these outcomes? 1 for active, 0 for inactive

CO[C@H]1/C=C/O[C@@]2(C)Oc3c(C)c(O)c4c(c3C2=O)C(=O)C(/C=N/N(c2ccccc2)c2ccccc2)=C(NC(=O)/C(C)=C\C=C\[C@H](C)[C@H](O)[C@@H](C)[C@@H](O)[C@@H](C)[C@H](OC(C)=O)[C@@H]1C)C4=O: 1
NC(N)=N/N=C(/c1ccccc1)c1ccccc1F: 1
Cc1nc(Nc2ccccn2)sc1C(=O)/C=C/c1ccc(Br)cc1: 0
C=C1c2c(C)nn(-c3ccc(O)cc3)c2N(C)C23C[C@@H]1C1(C)c4c(C)nn(-c5ccc(O)cc5)c4N(C)C(C)(C[C@H]12)C3 (stereo not given in full): 0
COc1cc(C2CC(c3ccc(Nc4nc(Nc5ccc(F)cc5)nc(Nc5ccc(Cl)cc5)n4)cc3)=NN2C(C)=O)cc(OC)c1OC (stereo not given): 0

Which outcome was entered for the compound O=C1C(Cl)C(c2ccccc2Cl)N1n1cnnc1 (stereo not given) in this test?
0

Which outcome was entered for the compound COc1cc(C(=O)/C=C/c2c(-c3ccc(F)cc3)nc3ncccn23)cc(OC)c1OC in this test?
0

====

- Test system: PC-3 prostate
- experimentSummary: NCI-60 one-dose screen, 48 h (100 = growth as untreated, 0 = no growth, -100 = all killed)
- reportedConditions: 10 µM unless noted
The panel holds about 83,000 compounds, 20% with a hit somewhere; the sample as a whole holds those more often.
readoutKind: growth (%)
Use % as the unit, but write only the number.

CN(CCCCCCCCNc1ccnc2ccccc12)Cc1ccc(-c2ccc(-c3ccc(C#N)cc3)s2)cc1: -63.7

Would you mind telling me what growth value was observed for CCC(=O)OC1=C(C)SC2=NC(c3ccc(Cl)c(Cl)c3)=CC(c3cc(OC)c(OC)c(OC)c3)N21 (stereo not drawn) ?
91.8

Would you mind telling me what growth value was observed for Cc1cc(N(CCCNc2ccnc3cc(Cl)ccc23)Cc2ccccn2)nc(N2CCOCC2)n1 ?
74

Would you mind telling me what growth value was observed for COc1cc2c(=O)n(CCCn3ccnc3)c3c4cc5c(cc4ccc3c2cc1OC)OCO5 ?
11.6

Would you mind telling me what growth value was observed for CN(C)c1ccc(/C=C2\C=C(c3ccccc3)N(CCc3ccccc3)C2=O)cc1 ?
52.3

Would you mind telling me what growth value was observed for CN(C)c1cnccn1 ?
88.6

====

- System: MCF7 breast
- experimentSummary: NCI-60 one-dose screen, 48 h (100 = growth as untreated, 0 = no growth, -100 = all killed)
- reportedConditions: 10 µM unless noted
About 83,000 compounds went through this panel and 20% of them were active in at least one assay; those are over-represented in the sample as a whole.
readoutKind: growth (%)
Use % as the unit, but write only the number.

COc1ccc(-c2cncnc2N)cc1OC: 103

Would you mind telling me what growth value was observed for C[C@@H](C[C@H](CCOCc1cccnc1)c1ccccc1)c1cc2ccccc2o1 ?
106

Would you mind telling me what growth value was observed for N=C(N)c1ccc(-c2ccc(/C=C/c3ccccc3)s2)cc1 ?
-74.2

Would you mind telling me what growth value was observed for CCn1c(Sc2nnc(NC(C)=O)s2)nc2c1c(=O)n(C)c(=O)n2C ?
94.8

====

- System: ACHN renal
- experimentSummary: NCI-60 one-dose screen, 48 h (100 = growth as untreated, 0 = no growth, -100 = all killed)
- reportedConditions: 10 µM unless noted
This is part of a sample that, as a whole, favours compounds with a hit. Of some 83,000 tested, about 20% had one in any assay.
Category key, based on recorded growth: A = under 20%, B = from 20% up to 90%, C = 90% and over

Sample answers from the record:
C=C1c2c(C)nn(-c3ccc(S(N)(=O)=O)cc3)c2N(C)C23CC1C1(C)c4c(C)nn(-c5ccc(S(N)(=O)=O)cc5)c4N(C)C(C)(CC12)C3 (stereo unspecified): A
COc1ccc(NC(=O)c2cccc(-c3cc(=O)c4c(O)c(OC)c(OC)cc4o3)c2)cc1: B

Where would CC(C)OC(=O)NNC(=O)c1ccncc1 land among the classes by reported growth?
C

Where would O=[N+]([O-])c1ccc(-c2cc3c(Nc4ccc(OCc5cccc(Cl)c5)c(Cl)c4)ncnc3s2)cc1 land among the classes by reported growth?
B

Where would CCOc1ccc(-c2nc3ccc(-c4nc5ccc(N6CCN(C)CC6)cc5[nH]4)cc3[nH]2)cc1OCC land among the classes by reported growth?
B

====

- System: NCI-H522 lung
- experimentSummary: NCI-60 one-dose screen, 48 h (100 = growth as untreated, 0 = no growth, -100 = all killed)
- reportedConditions: 10 µM unless noted
The panel holds about 83,000 compounds, 20% with a hit somewhere; the sample as a whole holds those more often.
Label key: rule met means growth under 40%; rule not met means growth of 40% or more.

I'd appreciate it if you could check whether C=C1C(=O)O[C@H]2[C@H]1CC/C(Cn1cc(CNCCc3c[nH]c4ccc(Cl)cc34)nn1)=C\CC[C@@]1(C)O[C@@H]21 has growth smaller than 40%.
rule met

I'd appreciate it if you could check whether CC(=O)c1ccc2c(c1)CCN2 has growth smaller than 40%.
rule not met

I'd appreciate it if you could check whether CCNCCNc1cc(-c2ccc(F)cc2)c(C#N)c2nc3ccccc3n12 has growth smaller than 40%.
rule not met

I'd appreciate it if you could check whether CC(C)CCC[C@@H](C)[C@H]1CCC2C3=CCC4C(=O)C=CC(=O)C4C3CC[C@@]21C (some centres undefined) has growth smaller than 40%.
rule met

I'd appreciate it if you could check whether COc1ccc(C2CC(c3ccccc3)=NN2c2nc(C)c(C(C)=O)s2)cc1 (centres undefined) has growth smaller than 40%.
rule not met

====

- System: EKVX NSCLC
- experimentSummary: NCI-60 one-dose screen, 48 h
- reportedConditions: 10 µM unless noted
About 83,000 compounds went through this panel and 20% of them were active in at least one assay; those are over-represented in the sample as a whole. Activity calls are given as the source filed them. The calls were made as follows: active = growth percent below 10; inactive = the rest.
Would you mind answering with one of these outcomes? active, inactive

Sample answers from the record:
CN(C)CCn1cc(-c2ccc3c(Nc4ccc(CC(=O)Nc5cccc(F)c5)cc4)ncnc3c2)cn1: active
CCNCCNc1cc(-c2ccc(C(F)(F)F)cc2)c(C#N)c2nc3cc(Cl)c(Cl)cc3n12: active
CN(C)c1ccc(-c2cc(-c3ccc(Nc4nc(Nc5ccccc5)nc(Nc5ccc(Cl)cc5)n4)cc3)nc(N)n2)cc1: inactive
CC(C)n1nc(C#Cc2cccc(NC(=O)c3cccc(C(F)(F)F)c3)c2)c2c(N)ncnc21: active
COc1cc2c(cc1OC)-c1ccc3cc4c(cc3c1N(CCCN(C)C)C2)OCO4: inactive

Which outcome was entered for the compound CN(C)CCN1C(=O)c2cccc3c(-c4ccc(-c5nc6c7ccccc7c7ccccc7c6[nH]5)cc4)ccc(c23)C1=O in this test?
inactive

Which outcome was entered for the compound CCC(O)(C(c1ccccc1)c1ccccn1)C(c1ccccc1)c1ccccn1 (stereo unspecified) in this test?
inactive

Which outcome was entered for the compound CN(C)CCCCNc1ccc(NCCCCN(C)C)c2c1C(=O)c1c(O)ccc(O)c1C2=O in this test?
active

Which outcome was entered for the compound COc1ccc(-c2cc(-c3ccc(Nc4nc(Nc5ccccc5)nc(Nc5ccc(Cl)cc5)n4)cc3)nc(N)c2C#N)cc1 in this test?
inactive

Which outcome was entered for the compound O=C1CCC(N2C(=O)c3cccc(NCCCC4CCN(CCNC(=O)c5cc6c(o5)C(=O)c5ccccc5C6=O)CC4)c3C2=O)C(=O)N1 (stereo unspecified) in this test?
active

Which outcome was entered for the compound Nc1ccc(-c2cc3c(Nc4ccc(OCc5cccc(F)c5)c(Cl)c4)ncnc3s2)cc1 in this test?
inactive

Which outcome was entered for the compound COc1ccc(C2=NC(=O)NC2c2ccc(OC)cc2)cc1 (stereo unspecified) in this test?
inactive

Which outcome was entered for the compound Cc1c(C)c2c(c(C)c1NC(=O)/C=C\C(=O)O)CCC(C)(CCCC(C)CCCC(C)CCCC(C)C)O2 (stereo unspecified) in this test?
inactive

Which outcome was entered for the compound CCOC(=O)Cc1csc2nc(-c3ccccc3)nn12 in this test?
inactive

Which outcome was entered for the compound CN(C)c1ccc2cc(-c3ccc(Cl)c(Cl)c3)c(N)nc2c1 in this test?
inactive

Which outcome was entered for the compound O=c1ccn(C2OC(F)(CO)C(O)C2F)c(=O)[nH]1 (stereo unspecified) in this test?
inactive

Which outcome was entered for the compound Cc1ccc(/C=C(\C#N)n2nnc3cc(Cl)c(Cl)cc32)cc1 in this test?
inactive

Which outcome was entered for the compound C[C@@H]1C(=O)N(C[C@H](Cc2ccccc2)N(Cc2ccccc2)Cc2ccccc2)[C@]1(Cc1ccccc1)C(=O)OC(C)(C)C in this test?
inactive

Which outcome was entered for the compound O=C(/C=C/C12c3ccccc3C(c3ccccc31)C1C(=O)NC(=O)C12)c1ccccc1 (stereo unspecified) in this test?
inactive

Which outcome was entered for the compound Oc1[nH]c2ccccc2c1/C=c1/cc2c(c(-c3ccc(F)cc3)n1)=Nc1ccccc1-2 in this test?
inactive

Which outcome was entered for the compound C=C(CNCCc1ccc(O)cc1)[C@@H]1CC[C@]2(COC3CCCCO3)CC[C@]3(C)[C@H](CC[C@@H]4[C@@]5(C)CCC(NCCO)C(C)(C)[C@@H]5CC[C@]43C)[C@@H]12 (stereo partly specified) in this test?
active

Which outcome was entered for the compound Cc1cc(C(c2ccccc2)c2ccccc2)ccc1NS(=O)(=O)c1ccccc1 in this test?
inactive
